Here's a roundup of Ki values tested on Carbonic anhydrase 1 (Homo sapiens), taken from various published works.

Sample answers from the record:
CCc1cc(-c2ccccc2)cc(CC)[n+]1CC(=O)Nc1ccc(S(N)(=O)=O)cc1; 15 µM
CCOc1ccc(S(=O)(=O)N2CCN(C)CC2)cc1-c1nnc2c(n1)c(C)nn2-c1ccc(C)cc1; 0.33 µM
CCOc1ccc(S(N)(=O)=O)cc1-c1nnc2c(n1)c(C)nn2C; 6.83 µM

Q: Please look at COC(=O)[C@@H](NS(=O)(=O)N[C@H](C(=O)OC)C(C)C)C(C)C and tell me its recorded Ki on Carbonic anhydrase 1 (Homo sapiens).
A: > 200 µM

Q: Please look at CCCC(CCC)C(=O)OCc1ccc(S(N)(=O)=O)cc1 and tell me its recorded Ki on Carbonic anhydrase 1 (Homo sapiens).
A: 1.5 µM

Q: Please look at CCCCCCCCN(CCCCCCCC)CC(=O)N(CCc1ccc(S(N)(=O)=O)cc1)Cc1ccccc1 and tell me its recorded Ki on Carbonic anhydrase 1 (Homo sapiens).
A: 0.947 µM

Q: Please look at NS(=O)(=O)c1ccc(/N=C/c2cc(Br)cc(Br)c2O)cc1 and tell me its recorded Ki on Carbonic anhydrase 1 (Homo sapiens).
A: > 50 µM

Q: Please look at CCCC(CCC)C(=O)Nc1ccc(S(N)(=O)=O)cc1Br and tell me its recorded Ki on Carbonic anhydrase 1 (Homo sapiens).
A: 0.6 µM

Q: Please look at CC1(C)OB(c2ccc(C(=O)Nc3nnc(S(N)(=O)=O)s3)cc2)OC1(C)C and tell me its recorded Ki on Carbonic anhydrase 1 (Homo sapiens).
A: 0.036 µM

Q: Please look at Nc1ccc(-c2cc(=O)oc3cc(O)ccc23)cc1 and tell me its recorded Ki on Carbonic anhydrase 1 (Homo sapiens).
A: > 10 µM

---

Here's a roundup of Ki values tested on Carbonic anhydrase 1 (Homo sapiens), taken from various published works.
# unit: nM | format: bare number

Sample answers from the record:
Cn1nc(S(N)(=O)=O)s/c1=N/C(=O)CNCC(=O)O; 710
CC(=O)N1N=C(c2ccc(OS(N)(=O)=O)cc2)CC1c1cc(Cl)ccc1Cl (centres undefined); 4750
C[C@H](CCC(=O)Nc1ccc(S(N)(=O)=O)cc1I)[C@H]1CC[C@H]2[C@@H]3CC[C@@H]4C[C@H](O)CC[C@]4(C)[C@H]3C[C@H](O)[C@]12C; 415
Cc1cn([C@H]2C[C@@H](n3cc(CNC(=O)Nc4cccc(S(N)(=O)=O)c4)nn3)[C@@H](CO)O2)c(=O)[nH]c1=O; 290
NS(=O)(=O)c1ccc(NC(=S)N[C@@H]2O[C@H](CO)[C@@H](O[C@H]3O[C@H](CO)[C@@H](O)[C@H](O)[C@H]3O)[C@H](O)[C@H]2O)cc1; 7920

Q: Please look at COc1nc(NCc2ccc(S(N)(=O)=O)cc2)nc(OC)n1 and tell me its recorded Ki on Carbonic anhydrase 1 (Homo sapiens).
A: 116

Q: Please look at NS(=O)(=O)c1ccc(N/C(S)=N/C(CO)C(=O)O)cc1 (centres undefined) and tell me its recorded Ki on Carbonic anhydrase 1 (Homo sapiens).
A: 28

Q: Please look at NS(=O)(=O)Oc1ccc(Br)cc1 and tell me its recorded Ki on Carbonic anhydrase 1 (Homo sapiens).
A: 7.3

Q: Please look at Cc1cc(-c2cccnc2)nn(-c2ccc(S(N)(=O)=O)cc2)c1=O and tell me its recorded Ki on Carbonic anhydrase 1 (Homo sapiens).
A: 101

Q: Please look at Cn1nc(S(N)(=O)=O)s/c1=N/C(=O)CNCCNCC(=O)O and tell me its recorded Ki on Carbonic anhydrase 1 (Homo sapiens).
A: 275

Q: Please look at NS(=O)(=O)c1ccc(OCCCCO[N+](=O)[O-])cc1 and tell me its recorded Ki on Carbonic anhydrase 1 (Homo sapiens).
A: 41

Q: Please look at Cn1nc(S(N)(=O)=O)s/c1=N/C(=O)CN(CC(=O)O)CC(=O)O and tell me its recorded Ki on Carbonic anhydrase 1 (Homo sapiens).
A: 520

Q: Please look at CC(=O)N1N=C(c2cccc(OS(N)(=O)=O)c2)CC1c1ccc(Cl)cc1Cl (centres undefined) and tell me its recorded Ki on Carbonic anhydrase 1 (Homo sapiens).
A: 1410

Q: Please look at CCN(CC)CCNC(=O)c1cccc(S(=O)(=O)Nc2nnc(S(N)(=O)=O)s2)c1 and tell me its recorded Ki on Carbonic anhydrase 1 (Homo sapiens).
A: 14

Q: Please look at Cc1cc(-c2ccccc2)cc(C)[n+]1CC(=O)Nc1cccc(S(N)(=O)=O)c1 and tell me its recorded Ki on Carbonic anhydrase 1 (Homo sapiens).
A: 19600

---

Here's a roundup of pKi values tested on Carbonic anhydrase 1 (Homo sapiens, UniProt P00915), taken from various published works.
Keep it numeric: pKi is minus log10 of the concentration in mol/L.

Sample answers from the record:
NS(=O)(=O)c1cccc(NC(=O)Nc2ccccc2)c1; 5.82
Oc1ccc(Cc2ccc(O)c(O)c2)cc1O; 4.74
CCCCCC(=O)Nc1ccc(S(N)(=O)=O)cc1; 4.85

Q: Report measured pKi; entry is OB1OCc2ccccc21
A: 5.24

---

pKi: −log10 of the molar value.
Here's a roundup of pKi values tested on Carbonic anhydrase 1 (Homo sapiens), taken from various published works.
pKi below 6 gives False; pKi at or above it gives True.

CN(Cc1ccccc1)C(=O)S; False
COc1ccc(C(=O)Nc2ccc3c(c2)S(=O)(=O)NC3=O)cc1; False
CC(C)c1cc(-c2ccccc2)cc(C(C)C)[n+]1CC(=O)Nc1ccc2nc(S(N)(=O)=O)sc2c1; True
O=C(O)c1ccc(N2C(=O)c3ccc(C(=O)Nc4ccccc4C(=O)O)cc3C2=O)cc1; False
CCCCC(NOCc1ccc(Cl)cc1)C(=O)NO (stereo not given); False

Q: State whether the measured pKi reaches 6, counting equality as reaching it, for CCC(C)NC(=O)Nc1cccc(S(N)(=O)=O)c1 (stereo not given)
A: True

Q: State whether the measured pKi reaches 6, counting equality as reaching it, for CC(=O)Nc1ccc(S(=O)(=O)Nc2nnc(S(N)(=O)=O)s2)cc1
A: True

Q: State whether the measured pKi reaches 6, counting equality as reaching it, for NS(=O)(=O)c1ccc(NC(=O)CN(CCN(CC(=O)O)CC(=O)Nc2ccc(S(N)(=O)=O)cc2F)CC(=O)O)c(F)c1
A: True

Q: State whether the measured pKi reaches 6, counting equality as reaching it, for CCCN(CCC)S(=O)(=O)NC(=O)OC(C)(C)C
A: False

Q: State whether the measured pKi reaches 6, counting equality as reaching it, for CN1C(=O)NS(=O)(=O)c2ccccc21
A: False

Q: State whether the measured pKi reaches 6, counting equality as reaching it, for CCCC(CCC)C(=O)NCCC(=O)Nc1nnc(S(N)(=O)=O)s1
A: True

Q: State whether the measured pKi reaches 6, counting equality as reaching it, for CC(=O)c1nnn(-c2ccc(S(N)(=O)=O)cc2)c1C
A: True

Q: State whether the measured pKi reaches 6, counting equality as reaching it, for Cc1ccc(C)c2c1NC(=O)NS2(=O)=O
A: False

---

Here's a roundup of log10(Ki) values tested on Carbonic anhydrase 1 (Homo sapiens, UniProt P00915), taken from various published works.
Recall that a logarithmic scale is used here: each number is log10 of Ki in nM.

Q: Report measured log10(Ki); entry is CC(=O)c1nnn(-c2ccc(S(=O)(=O)Nc3nccs3)cc2)c1C
A: 4.71

Q: Report measured log10(Ki); entry is NS(=O)(=O)c1cc(S(N)(=O)=O)c(NSC(=S)N2CCOCC2)cc1Cl
A: 2.75

Q: Report measured log10(Ki); entry is NS(=O)(=O)c1nnc(NC(=O)CCNC(=O)CN(CCOCCOCCN(CC(=O)O)CC(=O)NCCC(=O)Nc2nnc(S(N)(=O)=O)s2)CC(=O)O)s1
A: 1.88

---

Here's a roundup of pKi values tested on Carbonic anhydrase 1 (Homo sapiens, UniProt P00915), taken from various published works.
Keep it numeric: pKi is minus log10 of the concentration in mol/L.

CC(Nc1nc(Cl)nc(Nc2ccc(S(N)(=O)=O)cc2)n1)C(=O)O (racemic); 5.88
CCCCCCCCCCCCCCOS(N)(=O)=O; 6.82
Cn1nc(S(N)(=O)=O)s/c1=N/C(=O)CN(CCOCCOCCN(CC(=O)O)CC(=O)O)CC(=O)O; 7.18

Q: Report measured pKi; entry is Cl.NS(=O)(=O)c1ccc(C/N=C/c2ccccc2)cc1
A: 7.03

Q: Report measured pKi; entry is NS(=O)(=O)c1ccc(NCc2cc(=O)oc3cc(Cl)ccc23)c(F)c1
A: 6.27

Q: Report measured pKi; entry is Nc1cccc(-c2ccc(S(N)(=O)=O)cc2)c1
A: 5.63

---

Here's a roundup of pKi values tested on Carbonic anhydrase 1 (Homo sapiens, UniProt P00915), taken from various published works.
Keep it numeric: pKi is minus log10 of the concentration in mol/L.

Cc1cc(C)[n+](CC(=O)NCc2ccc(S(N)(=O)=O)cc2)c(C)c1; 5.82

Q: Report measured pKi; entry is NS(=O)(=O)c1ccc(NC(=O)Nc2c(F)c(F)c(F)c(F)c2F)c(Br)c1
A: 5.71

Q: Report measured pKi; entry is Nc1ccc(-c2ccc(S(N)(=O)=O)cc2)cc1
A: 7.11

Q: Report measured pKi; entry is Cn1nc(S(N)(=O)=O)s/c1=N/C(=O)c1ccccc1
A: 6.07

Q: Report measured pKi; entry is NS(=O)(=O)c1ccc(CCNC(=S)N[C@@H]2O[C@H](CO)[C@H](O)[C@H](O)[C@H]2O)cc1
A: 5.24
